Biological target: T1, Human CXCR2 (human, UniProt P25025 1-360)
T1 construct: Some cell lines carry an N-terminal 3xHA tag; also called hCXCR2; huCXCR2
T1 sequence: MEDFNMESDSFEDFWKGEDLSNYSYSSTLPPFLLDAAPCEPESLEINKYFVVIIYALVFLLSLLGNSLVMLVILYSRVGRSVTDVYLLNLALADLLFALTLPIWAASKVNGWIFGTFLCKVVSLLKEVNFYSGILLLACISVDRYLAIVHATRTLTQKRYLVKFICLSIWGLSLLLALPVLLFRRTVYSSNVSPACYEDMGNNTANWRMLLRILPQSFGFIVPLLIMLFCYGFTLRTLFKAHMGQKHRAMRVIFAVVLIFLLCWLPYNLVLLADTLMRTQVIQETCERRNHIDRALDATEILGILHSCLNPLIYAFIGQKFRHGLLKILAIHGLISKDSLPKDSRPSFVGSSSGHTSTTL
Test: FACS, periplasmic extract vs FMAT Blue Gro-α
Below, each entry is listed with its recorded FACS Gro-α competition (% inhibition).

| BINDER | UNITS TEXT | FACS Gro-α competition (% inhibition) |
| --- | --- | --- |
| 143B3 (VHH, Tested as periplasmic extract only; also called 143B03; not shown: C-terminal c-myc tag and His6 tag coded by the vector) VHH: EVQLVESGGGLVQPGGSLRLSCAASGFTFSTYWMYWVRQAPGKGLDWVSAINAGGDSTYYADPVKGRFTISRDNNKNTLYLQMNSLKPEDTALYYCATVRGTARDLDYWGQGTQVTVSS | % | 70.8 |
| 97A9 (VHH, Tested as periplasmic extract (pAX50) and as purified His6-tagged protein (pAX100); also called 097A09; not shown: C-terminal c-myc tag and His6 tag coded by the vector) VHH: EVQLVESGGGLVQPGGSLRLSCVASGSIVRINTMGWYRQTPGKQRELVADITSGGNINYIDAVKGRFTISRDNTKNTVYLQMNSLKPEDTAVYYCNAEIVVLVGVWTQRARTGNYWGQGTQVTVSS | % | 85.9 |
| 137A8 (VHH, Tested as periplasmic extract only; also called 137A08; not shown: C-terminal c-myc tag and His6 tag coded by the vector) VHH: EVQLVESGGGLVQPGGSLRLSCAASGSTLAYYTVGWFRRAPGKEREGISCISSSDGSTYYADSVKGRFTISRDNAKNTVYLQMNSLKPEDTAVYYCAADRRTDCKKGRVGSGSWGQGTQVTVSS | % | 55.8 |
| 127D1 (VHH, Tested as periplasmic extract (pAX50) and as purified His6-tagged protein (pAX100); also called 127D01; not shown: C-terminal c-myc tag and His6 tag coded by the vector) VHH: EVQLVESGGGLVQAGESLRLSCAASGSTFDFKVMGWYRQPPGKQREGVAAIRLSGNMHYAESVKGRFTISKANAKNTVYLQMNSLRPEDTAVYYCKVNIRGQDYWGQGTQVTVSS | % | 46.7 |
| 2B2 (VHH, Tested as periplasmic extract (pAX50) and as purified His6-tagged protein (pAX100); also called 002B02; not shown: C-terminal c-myc tag and His6 tag coded by the vector) VHH: EVQLVESGGELVQPGGSLRLSCAASGSILTINAMGWYRQAPGKQRELVVRRTRGGSTTYQDSVKGRFTISADIAKKTMYLQMNSLKPEDTAVYYCMLDDRGGVYWGQGTQVTVSS | % | 38.1 |
| 139D5 (VHH, Tested as periplasmic extract only; also called 139D05; not shown: C-terminal c-myc tag and His6 tag coded by the vector) VHH: EVKLVESGGGLVQAGGSLRLSCALSGRIGSINAMGWYRQVSGQQRELVAVSRSGGSTDIADSVKGRFTISRDNGKNTVYLQMDSLKPEDTAVYYCYAHTSSYSNWRVYNNDYWGQGTQVTVSS | % | 56.8 |
